study-system: SIX1 homeodomain (reference allele) (human, UniProt Q15475 108-198)
Sequence: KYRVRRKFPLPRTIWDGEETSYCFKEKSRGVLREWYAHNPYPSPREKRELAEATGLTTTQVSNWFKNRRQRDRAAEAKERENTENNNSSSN
protocol-description: universal protein binding microarray; Universal all-10-mer PBM (8x60K, AMADID 030236), 300 nM GST-tagged protein, Alexa Fluor 488 anti-GST; buffer, salt, pH and temperature not stated (as in Berger); high values mean tight binding
condition-parameters: protein: ivt; tags: N-terminal GST; dsDNA, one strand shown
In all, about 33,000 sequences were measured (“e-score”: median about -0.053, highest 2% from about 0.38 on). What follows is part of a selection rich in the highest values, with near analogues and random picks from the rest.
Label rule met when binding signal >= 0.2 E-score; otherwise rule not met.

Assess whether reported binding signal for `GTGTTATA` sits at 0.2 E-score or higher. rule met

State whether the measured binding signal reaches 0.2 E-score, counting equality as reaching it, for `GGATAGCA` rule met

Would you say `CTCCTATC` shows binding signal at minimum 0.2 E-score? rule met

I'd appreciate it if you could say whether `AAGTATCG` has binding signal at least equal to 0.2 E-score. rule met

Can `ATCGCTGA` be said to have binding signal at or above 0.2 E-score? rule met

Hello, I need to know if `TATCGGCA` has measured binding signal not below 0.2 E-score. Thanks! rule met

Confirm if binding signal reported for the sequence `CAGTATAG` is 0.2 E-score or above. rule not met
